Reported normalised cell number values for the following molecules.
experiment: EMT-state selective cytotoxicity in co-culture – imaging, PC-3E GFP, TEM4-18 mCherry, primary screen (AID 1345086); settings: PC-3E GFP / TEM4-18 mCherry co-culture, imaging cell counts; measured here: mesenchymal TEM4-18 mCherry cell survival; at 1 µM;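 also: cells exposed to compound for 72 h before imaging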
READOUT NAME: normalised cell number

> print(dat)
                                    molecule  observed.measurement
 1                  O=NN(CCCl)C(=O)NC1CCCCC1                  1.15
 2                           O=C(O)c1ccccc1O                  1.19
 3            CCCCOc1ccc(C(=O)CCN2CCCCC2)cc1                  1.41
 4               O=C1c2ccccc2C(=O)C1c1ccccc1                  1.15
 5       Nc1ccn([C@H]2CC[C@@H](CO)O2)c(=O)n1                  0.88
 6                        C/C=C/c1ccc(OC)cc1                  1.34
 7       Cc1cc(C)nc(NS(=O)(=O)c2ccc(N)cc2)n1                  1.31
 8  COc1cc(C(=O)NCc2ccc(OCCN(C)C)cc2)cc(OC)c1OC                  1.18
 9        CCO/C([O-])=N/c1c[n+](N2CCOCC2)no1                  0.94
10  N[C@@H](CCC(=O)N[C@@H](CS)C(=O)NCC(=O)O)C(=O)O                  0.85
11  Cc1nc2sccn2c(=O)c1CCN1CCC(=C(c2ccc(F)cc2)c2ccc(F)cc2)CC1                  1.38
12    CN1CCN(CCCN2c3ccccc3Sc3ccc(Cl)cc32)CC1                  1.16
13                      C[N+](C)(C)CCOC(N)=O                  1.03
14  CCCCC(CC)CN=C(N)NC(N)=NCCCCCCN=C(N)NC(N)=NCC(CC)CCCC (configuration not stated)                  1.01
15         O=C(O)c1cccnc1Nc1cccc(C(F)(F)F)c1                     1
16  COc1ccc2cc1Oc1ccc(cc1)C[C@H]1c3c(cc4c(c3Oc3cc5c(cc3OC)CCN(C)[C@@H]5C2)OCO4)CCN1C                  0.78
17          CCN(CC)CCNC(=O)c1ccc(NC(C)=O)cc1                  1.13
18    OCCOCCN1CCN(C2=Nc3ccccc3Sc3ccccc32)CC1                  0.94
19          Cc1c(NC(C)C)c(=O)n(-c2ccccc2)n1C                   0.8
20  COC(=O)Nc1nc2ccc(S(=O)c3ccccc3)cc2[nH]1 (configuration not stated)                  0.95
21  CCCCC1(COC(=O)CCC(=O)O)C(=O)N(c2ccccc2)N(c2ccccc2)C1=O                  0.87
22                                  CC(=O)NO                  1.18
23             CCN(CC)CCNC(=O)COc1ccc(OC)cc1                  1.18
24           Cc1cc(C(C)(C)C)cc(C)c1CC1=NCCN1                  1.24
25  Cc1cc2c(C(C)C)c(O)c(O)c(C=O)c2c(O)c1-c1c(C)cc2c(C(C)C)c(O)c(O)c(C=O)c2c1O                  0.95
26  Cc1cnc(NC(=O)C2=C(O)c3ccccc3S(=O)(=O)N2C)s1                  1.05
27  CCCCC(CC)CN1CN(CC(CC)CCCC)CC(C)(N)C1 (configuration not stated)                  0.85
28            CCCOc1ccc2nc(NC(=O)OC)[nH]c2c1                  0.21
29                        CC(=O)Oc1cccc(O)c1                  1.33
30                  O=C(O)c1ccccc1OP(=O)(O)O                  1.05
31  Oc1c(Cl)cc(Cl)c(Cl)c1Cc1c(O)c(Cl)cc(Cl)c1Cl                  0.53
32  CC1CCC(NC(=O)N(CCCl)N=O)CC1 (configuration not stated)                  1.37
33      O=c1c(-c2ccc(O)cc2)coc2cc(O)cc(O)c12                  0.91
34  COc1ccccc1N1CCN(CC(O)COc2cccc3ccccc23)CC1 (configuration not stated)                   0.8
35  C[n+]1cc2c3c(ccc2c2ccc4cc5c(cc4c21)OCO5)OCO3                  1.01
36  NS(=O)(=O)c1cc2c(cc1Cl)NC(CSCc1ccccc1)=NS2(=O)=O                  1.28
37  CCN1CCCC(OC(=O)C(c2ccccc2)c2ccccc2)C1 (configuration not stated)                  1.19
38      c1cnc(N2CCN(Cc3ccc4c(c3)OCO4)CC2)nc1                  0.96
39           CCCCN(CCCC)CCCOC(=O)c1ccc(N)cc1                   1.2
40       COC(=O)Nc1nc2ccc(Sc3ccccc3)cc2[nH]1                  0.26
41     C/C=C(/C(=C/C)c1ccc(O)cc1)c1ccc(O)cc1                  1.55
42                  O=C(O)c1cc(=O)c2ccccc2o1                  0.78
